Assignment: determine reported Fluorescence, % change from control of the medium fluorescence intensity for the given substances.
- System Under Test: LFA-1 (CD11a) (Homo sapiens)
- Construct: host or cells: Molt3 human T-cell leukemia line
- Sequence (P20701 26-1170): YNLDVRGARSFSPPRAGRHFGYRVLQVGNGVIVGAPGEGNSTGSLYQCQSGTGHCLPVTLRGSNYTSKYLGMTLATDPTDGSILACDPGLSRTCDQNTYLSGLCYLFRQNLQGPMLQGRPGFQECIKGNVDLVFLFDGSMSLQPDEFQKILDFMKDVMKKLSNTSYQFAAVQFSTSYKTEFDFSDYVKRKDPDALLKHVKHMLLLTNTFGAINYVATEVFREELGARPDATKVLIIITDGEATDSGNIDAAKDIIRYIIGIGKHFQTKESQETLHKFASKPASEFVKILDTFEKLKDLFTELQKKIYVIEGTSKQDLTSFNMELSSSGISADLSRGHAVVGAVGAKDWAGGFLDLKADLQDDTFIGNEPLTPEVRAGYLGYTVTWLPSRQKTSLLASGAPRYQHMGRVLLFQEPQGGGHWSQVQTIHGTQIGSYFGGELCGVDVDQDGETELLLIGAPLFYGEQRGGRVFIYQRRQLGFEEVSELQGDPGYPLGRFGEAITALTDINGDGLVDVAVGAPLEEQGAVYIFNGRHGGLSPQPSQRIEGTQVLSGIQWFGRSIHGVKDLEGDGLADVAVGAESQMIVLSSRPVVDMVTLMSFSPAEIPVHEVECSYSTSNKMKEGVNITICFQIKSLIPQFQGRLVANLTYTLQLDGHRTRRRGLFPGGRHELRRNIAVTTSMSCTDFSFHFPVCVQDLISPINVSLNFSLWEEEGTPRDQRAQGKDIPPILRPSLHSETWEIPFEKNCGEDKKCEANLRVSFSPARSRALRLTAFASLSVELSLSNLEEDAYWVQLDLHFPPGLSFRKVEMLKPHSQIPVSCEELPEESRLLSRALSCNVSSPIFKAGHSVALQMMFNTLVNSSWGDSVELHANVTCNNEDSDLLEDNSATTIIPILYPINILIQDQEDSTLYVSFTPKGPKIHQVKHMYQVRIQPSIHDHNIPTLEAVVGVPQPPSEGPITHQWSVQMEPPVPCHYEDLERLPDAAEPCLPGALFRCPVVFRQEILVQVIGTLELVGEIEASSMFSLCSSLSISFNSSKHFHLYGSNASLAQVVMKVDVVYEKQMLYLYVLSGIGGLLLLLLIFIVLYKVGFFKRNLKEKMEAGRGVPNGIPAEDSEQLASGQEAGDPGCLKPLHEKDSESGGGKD
- Sequence (P05107 23-769 partner): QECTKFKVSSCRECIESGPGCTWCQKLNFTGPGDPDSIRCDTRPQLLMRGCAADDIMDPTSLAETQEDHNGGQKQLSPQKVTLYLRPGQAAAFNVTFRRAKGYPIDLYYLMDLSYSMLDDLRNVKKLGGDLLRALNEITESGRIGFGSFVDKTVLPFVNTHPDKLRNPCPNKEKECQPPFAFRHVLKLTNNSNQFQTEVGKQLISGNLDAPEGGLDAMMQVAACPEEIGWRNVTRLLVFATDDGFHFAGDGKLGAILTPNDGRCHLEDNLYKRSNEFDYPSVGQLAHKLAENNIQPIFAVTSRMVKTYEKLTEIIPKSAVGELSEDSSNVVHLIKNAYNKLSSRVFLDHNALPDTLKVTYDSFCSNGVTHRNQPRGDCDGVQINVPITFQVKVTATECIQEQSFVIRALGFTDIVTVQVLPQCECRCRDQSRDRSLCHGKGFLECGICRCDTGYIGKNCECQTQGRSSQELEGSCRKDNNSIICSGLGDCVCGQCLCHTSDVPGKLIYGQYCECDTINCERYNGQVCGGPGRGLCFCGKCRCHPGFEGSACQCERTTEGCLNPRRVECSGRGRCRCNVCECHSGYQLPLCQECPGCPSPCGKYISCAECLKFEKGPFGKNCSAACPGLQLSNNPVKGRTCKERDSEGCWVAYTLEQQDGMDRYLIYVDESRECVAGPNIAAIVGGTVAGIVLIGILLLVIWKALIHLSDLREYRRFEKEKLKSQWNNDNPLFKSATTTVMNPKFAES
- Experiment Notes: Antibody binding assay (FACS): anti-LFA-1 mAb (mouse IgG anti-human CD11a) binding to Molt3 T-cells after peptide incubation
- Type: cell-based
- Test Parameters: mAb CD11a; peptide 4550 μM; average ± standard error of runs; negative = blocking
Give the value, in units of %, as a plain number.

Qu. Recorded Fluorescence, % change from control of the medium fluorescence intensity for LJCRF-3: ICAM-1 derived short-chain peptide, Sequence ID No. 12 (KELLLPGNNRKVYELSNVQEDSQP) , please?
Ans. -13

Qu. Item under review: SC-3-111: ICAM-1 based short-chain peptide, Sequence ID No. 10 (QTSVSPSKVI) . Reported Fluorescence, % change from control of the medium fluorescence intensity?
Ans. -29

Qu. Which Fluorescence, % change from control of the medium fluorescence intensity is reported for this substance? SC-3-152: ICAM-derived short-chain peptide, Sequence ID No. 11; modulator peptide (DQPKLLGIETPLPKKELLLPGNNRK)
Ans. -43

Qu. If you can, please state the reported Fluorescence, % change from control of the medium fluorescence intensity value of LJCRF-1: ICAM-1 based short-chain peptide, Sequence ID No. 6 (QTSVSPSKVILPRGGSVLVTG) .
Ans. -29

---

Task for the reader: assign each of the following substances its reported MTT % Viability.
- Tested on: Molt3 cells
- Experiment Notes: Cell metabolic assay (MTT)
- Format: cell-based
- Test Parameters: peptide 1820 μM
Show the value, then the unit it is measured in.

Qu. Item under review: LJCRF-1: ICAM-1 based short-chain peptide, Sequence ID No. 6 (QTSVSPSKVILPRGGSVLVTG) . Reported MTT % Viability?
Ans. 66%

Qu. Give the measured MTT % Viability of SC-3-152: ICAM-derived short-chain peptide, Sequence ID No. 11; modulator peptide (DQPKLLGIETPLPKKELLLPGNNRK) .
Ans. 43%

Qu. For the substance LJCRF-4: LFA-1β based modulator peptide, Sequence ID No. 16 (DLSYSLDDLRNVKKLGGDLLRALNE) , what MTT % Viability is on record?
Ans. 11%

Qu. Looking for the measured MTT % Viability of SC-3-223: LFA-1β derived peptide, identical to LJCRF-4 (Sequence ID No. 16), tested separately (DLSYSLDDLRNVKKLGGDLLRALNE) , can you help?
Ans. 75%

Qu. Give the measured MTT % Viability of SC-3-111: ICAM-1 based short-chain peptide, Sequence ID No. 10 (QTSVSPSKVI) .
Ans. 69%

Qu. Entry LJCRF-5: LFA-1α derived short-chain peptide, Sequence ID No. 17 (GVDVDQDGETELIGAPLFYGEQRG) : reported MTT % Viability = ?
Ans. 20%

---

- Tested on: Molt3 cells
- Experiment Notes: Cell metabolic assay (MTT)
- Type: cell-based
- Test Parameters: peptide 460 μM
Give MTT % Viability for every item shown.
Output should be the measured figure followed by the unit it is expressed in.

Qu. Look at this substance and give its reported MTT % Viability. SC-3-152: ICAM-derived short-chain peptide, Sequence ID No. 11; modulator peptide (DQPKLLGIETPLPKKELLLPGNNRK)
Ans. 38%

Qu. Consider the substance shown here: LJCRF-1: ICAM-1 based short-chain peptide, Sequence ID No. 6 (QTSVSPSKVILPRGGSVLVTG) What is its recorded MTT % Viability?
Ans. 93%

Qu. What value of MTT % Viability has been reported for the following substance? SC-3-111: ICAM-1 based short-chain peptide, Sequence ID No. 10 (QTSVSPSKVI)
Ans. 95%

Qu. What MTT % Viability value was documented for this substance, LJCRF-5: LFA-1α derived short-chain peptide, Sequence ID No. 17 (GVDVDQDGETELIGAPLFYGEQRG) ?
Ans. 81%

Qu. Which MTT % Viability value is on record for LJCRF-4: LFA-1β based modulator peptide, Sequence ID No. 16 (DLSYSLDDLRNVKKLGGDLLRALNE) ?
Ans. 94%

Qu. I'd like to know its MTT % Viability. The substance in question is SC-3-223: LFA-1β derived peptide, identical to LJCRF-4 (Sequence ID No. 16), tested separately (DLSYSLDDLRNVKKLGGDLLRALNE)
Ans. 112%
